OD450 at 0.002 µg/mL values by entry
- experimental_target: T1, PD-1 protein (human, UniProt Q15116 25-167, limits assumed)
- T1 construct: also called human PD-1
- T1 sequence (Q15116 25-167 limits assumed): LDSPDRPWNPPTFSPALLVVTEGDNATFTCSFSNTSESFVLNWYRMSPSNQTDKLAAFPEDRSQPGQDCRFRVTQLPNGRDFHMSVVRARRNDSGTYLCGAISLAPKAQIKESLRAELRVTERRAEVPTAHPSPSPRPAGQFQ
- protocol: ELISA, PD-1 coated
- Method: 2 μg/ml of PD-1 protein is coated on 96-well plates overnight for ELISA binding assay. Recombinant VHH-FC proteins are added to the wells and allowed to stand for a period of time, then 1 μg/ml of HRP-conjugated anti-FC antibody is added as detection antibody and the assay reagents are added. The absorbance is read at 450 nm. Binding of nivolumab serves as a positive control and plates coated with BSA are used as the negative control group.
quantity_measured: OD450 at 0.002 µg/mL (OD450)

binder	quantity_measured	test_result
504#SS15 (Fc fusion, not shown: a dimerising Fc or GST; small tags and cut ends, VHH-FC construct from HEK293 cells) VHH: QVQLVESGGGLVQPGGSLRLSCAASGFTFSNYAMTWYRQAPGKERELVAAISSAGYTTTYAGSVKGRFTISRDNAKNTVYLQMNSLNPEDTAVYYCNAGRLSYGGSYYPNDDYWGQGTQVTVSS	OD450 at 0.002 µg/mL	0.04
504#SS16 (Fc fusion, not shown: a dimerising Fc or GST; small tags and cut ends, VHH-FC construct from HEK293 cells) VHH: EVQVVESGGGLVQAGGSLRLSCAVSGRTFSSYVMGWFRQAPGKERDFVAAISRSGGRTWYADSVKGRFTISFDNAKNTVYLQMNSLKPEDTASYYCNTDYTFAKLTAPDRRNDDWGQGTQVTVSS	OD450 at 0.002 µg/mL	0.03
504#SS2 (Fc fusion, VHH-FC construct from HEK293 cells; not shown: The (G4S)3 linker leading to it is left out with it) VHH: EVQVVESGGGLVKTGDSLRLSCAASGGTISGYEMGWFRQAPGKEREFVAGISRNGRSTGYSDSAKDRFTISRDNAKNTVYLQMNSLKPEDTAVYYCAAGLKADYGDSYVDTSTRNYNYWGQGTQVTVSS	OD450 at 0.002 µg/mL	0.59
504#SS22 (Fc fusion, not shown: a dimerising Fc or GST; small tags and cut ends, VHH-FC construct from HEK293 cells) VHH: QVQLVETGGGLVQAGGSLRLSCAASGRTFSSYAMGWFRQAPGKERDFVAGISGSGGNTPYAESVKGRFTISRDNAKNTVALQMNSLKPEDTAVYYCAAKFTSSSFYYRSPREYSSWGQGTQVTVSS	OD450 at 0.002 µg/mL	0.04
